Experiment: Plasma clearance in dog assessed as hepatic extraction
Type: ADME, cell-free, Canis lupus familiaris
Conditions: read-out: ERH
assay-metric: hepatic extraction ratio

Ask | Tell me hepatic extraction ratio reported for Cc1ncccc1-c1cnc(NCc2c(F)ccc3c2CCO3)n2cnnc12
Reply | 0.35

====

Biological target: Alpha-2C adrenergic receptor (Homo sapiens, UniProt P18825)
Sequence (P18825 whole entry): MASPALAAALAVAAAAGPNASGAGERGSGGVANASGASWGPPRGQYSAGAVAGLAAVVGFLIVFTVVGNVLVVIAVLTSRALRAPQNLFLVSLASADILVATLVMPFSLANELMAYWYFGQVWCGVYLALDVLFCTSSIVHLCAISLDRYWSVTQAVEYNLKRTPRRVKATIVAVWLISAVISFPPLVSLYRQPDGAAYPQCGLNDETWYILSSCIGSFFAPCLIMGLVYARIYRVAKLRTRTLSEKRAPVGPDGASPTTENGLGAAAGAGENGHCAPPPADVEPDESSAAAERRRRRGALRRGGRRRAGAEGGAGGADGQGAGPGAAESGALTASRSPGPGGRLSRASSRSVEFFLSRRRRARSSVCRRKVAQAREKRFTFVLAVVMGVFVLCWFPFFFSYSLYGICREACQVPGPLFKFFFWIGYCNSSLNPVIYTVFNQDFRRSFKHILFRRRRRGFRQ
Test: Inhibition of alpha2c adrenergic receptor (unknown origin)
assay-metric: pIC50
Units for pIC50: none; it is -log10 of a concentration expressed in mol/L.

Ask | Item c1cncc(-c2cnc(NCc3cccc4c3CCO4)n3cnnc23)c1 : provide pIC50
Reply | 5.41

====

Assay: Metabolic stability in mouse microsomes assessed as intrinsic clearance
Type: ADME, Microsome
Conditions: read-out: CLH
assay-metric: microsomal CLint (µL/min/mg)
Write down the numeric answer in µL/min/mg and omit the unit.

>  <compound-structure>
COc1cccc(F)c1CNc1ccc(-c2cnc(C)nc2C)c2nncn12

>  <microsomal CLint, µL/min/mg>
21

$$$$

Kindly consider the entry below.
Ask | Identify the reported microsomal CLint for the following entry. Cc1ncccc1-c1cnc(NCc2c(F)ccc3c2CCO3)n2cnnc12
Reply | 22

====

Target: 3',5'-cyclic-AMP phosphodiesterase 4D (Homo sapiens)
Sequence (Q08499 whole entry): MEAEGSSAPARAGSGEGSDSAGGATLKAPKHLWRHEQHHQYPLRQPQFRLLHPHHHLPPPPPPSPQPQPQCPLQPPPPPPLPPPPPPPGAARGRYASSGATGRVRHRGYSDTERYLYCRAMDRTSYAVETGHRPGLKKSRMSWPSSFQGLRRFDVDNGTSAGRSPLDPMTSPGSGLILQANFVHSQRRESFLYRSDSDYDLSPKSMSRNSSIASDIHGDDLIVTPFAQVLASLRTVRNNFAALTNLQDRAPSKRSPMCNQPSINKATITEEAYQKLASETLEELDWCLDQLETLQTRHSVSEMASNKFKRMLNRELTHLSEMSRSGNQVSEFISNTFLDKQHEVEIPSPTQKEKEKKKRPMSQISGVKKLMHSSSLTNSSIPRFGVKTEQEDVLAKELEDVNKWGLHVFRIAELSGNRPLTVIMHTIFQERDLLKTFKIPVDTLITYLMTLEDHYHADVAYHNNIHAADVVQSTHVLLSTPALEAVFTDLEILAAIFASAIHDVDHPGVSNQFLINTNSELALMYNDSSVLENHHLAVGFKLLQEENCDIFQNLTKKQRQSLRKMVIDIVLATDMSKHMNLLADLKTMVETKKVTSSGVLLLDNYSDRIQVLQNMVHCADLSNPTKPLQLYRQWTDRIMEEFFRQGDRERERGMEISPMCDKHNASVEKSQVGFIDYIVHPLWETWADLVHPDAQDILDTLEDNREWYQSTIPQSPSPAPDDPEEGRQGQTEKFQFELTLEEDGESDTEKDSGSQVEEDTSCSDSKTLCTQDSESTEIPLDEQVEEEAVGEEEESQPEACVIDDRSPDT
assay-metric: IC50 (µM)
Give the value in µM but do not write µM after it.

Ask | Specify reported IC50 for the compound shown: c1cc(CNc2ncc(-c3ccncc3)c3nncn23)c2c(c1)OCC2
Reply | 10

====

This listing pairs molecules with measured Papp A→B at 2 h, 10 µM.
Assay: Permeability across apical to basolateral side in human Caco-2 cells at 10 uM incubated for 2 hrs by LC/MS/MS analysis
Assay type: ADME, cell-based
Conditions: Caco-2, read-out: permeability
A number alone suffices; assume ×10⁻⁶ cm/s.

Sample records with Papp A→B at 2 h, 10 µM:
>  <compound-structure>
CS(=O)(=O)c1ccc(-c2cnc(NCc3ccco3)n3cnnc23)cc1

>  <measured-result>
3

$$$$
>  <compound-structure>
COc1cccc(F)c1CNc1ccc(-c2cnc(C)nc2C)c2nncn12

>  <measured-result>
7.2

$$$$

Could you now consider this next molecule?
Ask | Kindly indicate its recorded Papp A→B at 2 h, 10 µM. Item: c1cncc(-c2cnc(NCc3cccc4c3CCO4)n3cnnc23)c1
Reply | 30

====

Assay: High throughput solubility of the compound in SGF after 16 to 24 hrs by MS/MS analysis
Assay type: physicochemical
Conditions: time 16-24 hrs
assay-metric: solubility (mM)
Write it as a number; the unit mM goes unstated.

>  <compound-structure>
COc1cccc(F)c1CNc1ccc(-c2cnc(C)nc2C)c2nncn12

>  <assay-metric>
solubility

>  <measured-result>
0.173

$$$$

Below: the item to evaluate.
Ask | Please give the documented solubility of Cc1ncccc1-c1cnc(NCc2c(F)ccc3c2CCO3)n2cnnc12
Reply | 8.74

====

Test: Intrinsic clearance in dog hepatocytes measured per 10^6 cells
Format: ADME, cell-based, Canis lupus familiaris, Hepatocyte
Settings: read-out: CLH
assay-metric: hepatocyte CLint (µL/min/1e6 cells)
Give the value in µL/min/1e6 cells but do not write µL/min/1e6 cells after it.

Ask | Look up and state reported hepatocyte CLint for Cc1ncccc1-c1cnc(NCc2c(F)ccc3c2CCO3)n2cnnc12
Reply | 4.8

====

Reported fraction unbound at 6 h, 1 µM is given for each of the following molecules.
Test: Plasma protein binding in dog at 1 uM measured after 6 hrs LC-MS/MS analysis
Type: ADME, cell-free, Canis lupus familiaris
Details: read-out: PPB (converted)
Please reply with the number alone, leaving off any unit.

>  <compound-structure>
COc1cccc(F)c1CNc1ccc(-c2cnc(C)nc2C)c2nncn12

>  <fraction unbound at 6 h, 1 µM>
0.15

$$$$

Pending molecule:
Ask | Please indicate fraction unbound at 6 h, 1 µM recorded for Cc1ncccc1-c1cnc(NCc2c(F)ccc3c2CCO3)n2cnnc12
Reply | 0.09

====

Experiment: Dissociation constant, pKa of compound
Format: physicochemical
assay-metric: pKa
Respond with the number and no other words.

Below, 3 compounds whose answers are already recorded.
>  <compound-structure>
c1cncc(-c2cnc(NCc3cccc4c3CCO4)n3cnnc23)c1

>  <pKa>
4.5

$$$$
>  <compound-structure>
Cc1ncccc1-c1cnc(NCc2c(F)ccc3c2CCO3)n2cnnc12

>  <pKa>
5.2

$$$$
>  <compound-structure>
COc1cccc(F)c1CNc1ccc(-c2cnc(C)nc2C)c2nncn12

>  <pKa>
3.3

$$$$

Now examine the next entry.
Ask | Output measured pKa for this item: c1cc(CNc2ncc(-c3ccncc3)c3nncn23)c2c(c1)OCC2
Reply | 5.4

====

Assay: Permeability across basolateral to apical side in human Caco-2 cells incubated for 2 hrs by LC/MS/MS analysis
Format: ADME, cell-based
Details: read-out: permeability
Reported Papp B→A at 2 h values are given for each entry in this list.
State just the number; it will be interpreted in ×10⁻⁶ cm/s.

>  <compound-structure>
Cc1ncccc1-c1cnc(NCc2c(F)ccc3c2CCO3)n2cnnc12

>  <Papp B→A at 2 h (×10⁻⁶ cm/s)>
37

$$$$

Ask | Give the measured Papp B→A at 2 h for COc1cccc(F)c1CNc1ccc(-c2cnc(C)nc2C)c2nncn12
Reply | 42

====

Molecular target: Alpha-2A adrenergic receptor (Homo sapiens)
Sequence (P08913 whole entry): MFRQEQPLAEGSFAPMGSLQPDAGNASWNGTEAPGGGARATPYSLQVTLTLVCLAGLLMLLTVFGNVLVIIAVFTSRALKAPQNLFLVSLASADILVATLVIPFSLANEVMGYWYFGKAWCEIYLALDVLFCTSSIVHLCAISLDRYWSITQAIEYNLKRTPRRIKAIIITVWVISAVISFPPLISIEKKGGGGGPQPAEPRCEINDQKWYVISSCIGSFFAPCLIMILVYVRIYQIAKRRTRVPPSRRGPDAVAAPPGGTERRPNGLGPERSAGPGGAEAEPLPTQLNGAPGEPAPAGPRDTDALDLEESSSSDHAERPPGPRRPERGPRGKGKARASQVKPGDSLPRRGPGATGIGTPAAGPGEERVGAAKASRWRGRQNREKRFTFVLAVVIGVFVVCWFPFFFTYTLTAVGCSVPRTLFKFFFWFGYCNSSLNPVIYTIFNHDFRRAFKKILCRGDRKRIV
Assay: Antagonist activity against alpha2a adrenergic receptor (unknown origin)
Assay type: functional
assay-metric: IC50 (µM)
Please give a number only; it is taken to be in µM.

Ask | Specify measured IC50 for CS(=O)(=O)c1ccc(-c2cnc(NCc3ccco3)n3cnnc23)cc1 .
Reply | 15

====

Listed below: solubility values for each entry.
Test: High throughput solubility of the compound in FeSSIF after 16 to 24 hrs by MS/MS analysis
Assay type: physicochemical
Settings: time 16-24 hrs
Give your result in µM as a bare value.

>  <compound-structure>
COc1cccc(F)c1CNc1ccc(-c2cnc(C)nc2C)c2nncn12

>  <unit-label>
µM

>  <solubility>
86

$$$$

Then this compound:
Ask | In one line, give reported solubility of the entry Cc1ncccc1-c1cnc(NCc2c(F)ccc3c2CCO3)n2cnnc12 .
Reply | 57

====

Assay: High throughput solubility of the compound at pH 6.8 after 16 to 24 hrs by MS/MS analysis
Type: physicochemical
Settings: buffer, time 16-24 hrs
Items are presented alongside their recorded log10 solubility.
Field: value | Transform: log10 | Quantity: solubility | Unit: µM

These solved cases illustrate the format of a correct answer.
>  <compound-structure>
c1cc(CNc2ncc(-c3ccncc3)c3nncn23)c2c(c1)OCC2

>  <assay-metric>
log10 solubility

>  <measured-result>
0.70

$$$$
>  <compound-structure>
CS(=O)(=O)c1ccc(-c2cnc(NCc3ccco3)n3cnnc23)cc1

>  <assay-metric>
log10 solubility

>  <measured-result>
1.08

$$$$
>  <compound-structure>
Cc1ccc(-c2cnc(NCc3c(F)ccc4c3CCO4)n3cnnc23)cn1

>  <assay-metric>
log10 solubility

>  <measured-result>
2.05

$$$$
>  <compound-structure>
Fc1ccc2c(c1CNc1ncc(-c3cccnc3)c3nncn13)CCO2

>  <assay-metric>
log10 solubility

>  <measured-result>
1.93

$$$$
>  <compound-structure>
COc1cccc(F)c1CNc1ccc(-c2cccnc2C)c2nncn12

>  <assay-metric>
log10 solubility

>  <measured-result>
2.42

$$$$
>  <compound-structure>
COc1cccc(F)c1CNc1ccc(-c2ccc(C)nc2C)c2nncn12

>  <assay-metric>
log10 solubility

>  <measured-result>
2.21

$$$$

Ask | Please give measured log10 solubility of the following entry: COc1cccc(F)c1CNc1ccc(-c2cccnc2)c2nncn12
Reply | 1.34

Ask | Quick one: give measured log10 solubility for Cc1ccc(-c2cnc(NCc3c(F)ccc4c3CCO4)n3cnnc23)c(C)n1
Reply | 2.49

Ask | Item c1cncc(-c2cnc(NCc3cccc4c3CCO4)n3cnnc23)c1 : provide log10 solubility
Reply | 1.18

====

Each entry below carries its recorded hepatocyte CLint.
Experiment: Intrinsic clearance in rat hepatocytes measured per 10^6 cells
Type: ADME, cell-based, Hepatocyte
Conditions: read-out: CLH
Report as a plain number; the unit µL/min/1e6 cells is understood.

>  <compound-structure>
COc1cccc(F)c1CNc1ccc(-c2cnc(C)nc2C)c2nncn12

>  <unit-label>
µL/min/1e6 cells

>  <hepatocyte CLint>
3.2

$$$$

In the following, a different molecule is considered.
Ask | Consider the molecule Cc1ncccc1-c1cnc(NCc2c(F)ccc3c2CCO3)n2cnnc12 . State its measured hepatocyte CLint.
Reply | 12

====

Test: Terminal half life in Sprague-Dawley rat at 2 mg/kg, po or 1 mg/kg, iv after 1 week by LC-MS/MS analysis
Type: ADME, organism-based
Conditions: in vivo, time 1 weeks, read-out: beta t1/2 (converted)
assay-metric: half-life (h)
Give the quantity in h, number only.

>  <compound-structure>
Cc1ncccc1-c1cnc(NCc2c(F)ccc3c2CCO3)n2cnnc12

>  <half-life / h>
3.2

$$$$

Now examine the next entry.
Ask | Indicate the recorded half-life value for this compound: COc1cccc(F)c1CNc1ccc(-c2cnc(C)nc2C)c2nncn12
Reply | 1.1

Hello, the source for this data is ChEMBL document CHEMBL5154826, in case you need it.
